Quick reference: IC50 of the listed items.
molecular target: ERbeta protein (Homo sapiens); construct: […]; His6 (leader […]) (N); experiment: ER beta FP binding assay; settings: 6 nM ERbeta protein, 1.5 nM ER FP ligand (Fluormone EL Red), 3 hours at room temperature; read-out: pIC50 in the ER beta FP binding assay (converted)
Sequence (Q92731 with tags, fused parts or gaps): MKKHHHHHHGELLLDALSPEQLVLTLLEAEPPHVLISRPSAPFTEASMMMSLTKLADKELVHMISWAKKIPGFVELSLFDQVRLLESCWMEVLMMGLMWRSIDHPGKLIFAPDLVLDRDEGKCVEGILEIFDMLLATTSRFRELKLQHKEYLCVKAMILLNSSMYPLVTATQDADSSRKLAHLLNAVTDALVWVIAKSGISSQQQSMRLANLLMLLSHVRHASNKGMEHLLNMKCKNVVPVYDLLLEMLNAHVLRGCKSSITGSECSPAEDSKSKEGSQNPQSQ

For orientation, consider the following solved cases.
- Oc1ccc(-n2ncc3c(O)cc(Cl)cc32)cc1F: < 100 nM
- Oc1ccc(-n2ncc3c(O)ccc(F)c32)cc1F: < 100 nM

## Task Reported IC50, compound CCc1cc(O)c2cnn(-c3ccc(O)c(F)c3)c2c1 : ____
## Result < 100 nM
